tested on: Cdc2 (Cdk1) tyrosine 15-phosphorylation in WiDr cells; experiment: Cdc2 (Cdk1) tyrosine 15-phosphorylation-inhibitory effect in gemcitabine-treated WiDr cells (ELISA); type: cell-based; details: Homo sapiens, gemcitabine 100 nM 24 hours, then test compound + nocodazole 8 hours, read-out: Cdc2-Y15 Phosphorylation-Inhibitory Effect (WiDr, + gemcitabine) (EC50)
Structures can show the parent of a compound that is named as a salt.
Metric: EC50 (nM)
Numeric answer only, unit nM assumed.

Reported EC50 ( CN1Cc2cc(Nc3ncc4c(=N)n(-c5c(Cl)cccc5Cl)c(=O)[nH]c4n3)ccc2C2(CC2)C1 [Example 1, dihydrochloride] ) = 21

EC50 recorded for this molecule, CN1Cc2cc(Nc3ncc4c(=N)n(-c5c(Cl)cccc5Cl)c(=O)[nH]c4n3)ccc2C(C)(C)C1 , is 46

Record summary for CN1Cc2cc(Nc3ncc4c(=N)n(-c5c(Cl)cccc5Cl)c(=O)[nH]c4n3)ccc2C1(C)C : reported EC50 = 24

----------
molecular target: Wee1 kinase (Homo sapiens, UniProt P30291); experiment: Wee1 kinase-inhibitory effect (33P-ATP, Poly(Lys,Tyr) substrate, filter assay); conditions: 10 μM ATP, 30° C., 30 minutes
Sequence (P30291 whole entry): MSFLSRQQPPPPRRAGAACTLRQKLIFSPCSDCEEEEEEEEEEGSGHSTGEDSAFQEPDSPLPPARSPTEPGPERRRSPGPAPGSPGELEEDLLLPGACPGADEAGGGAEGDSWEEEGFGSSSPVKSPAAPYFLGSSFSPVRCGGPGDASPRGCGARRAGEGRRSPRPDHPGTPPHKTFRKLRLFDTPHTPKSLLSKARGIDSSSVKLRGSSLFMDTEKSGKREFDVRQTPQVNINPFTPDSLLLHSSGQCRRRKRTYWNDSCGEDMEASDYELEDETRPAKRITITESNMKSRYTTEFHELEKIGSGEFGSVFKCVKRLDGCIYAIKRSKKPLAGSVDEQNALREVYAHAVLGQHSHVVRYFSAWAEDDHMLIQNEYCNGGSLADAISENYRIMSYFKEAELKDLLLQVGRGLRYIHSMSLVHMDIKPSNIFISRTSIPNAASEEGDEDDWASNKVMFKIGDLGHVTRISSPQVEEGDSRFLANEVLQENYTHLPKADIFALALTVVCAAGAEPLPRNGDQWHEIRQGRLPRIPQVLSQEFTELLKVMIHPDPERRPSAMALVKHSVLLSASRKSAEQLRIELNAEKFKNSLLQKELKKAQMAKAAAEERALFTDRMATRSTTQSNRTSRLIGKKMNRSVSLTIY
Metric: IC50 (nM)
Quick reminder: number only, in nM, skip the unit.

Recorded result, Cn1c(=O)n(-c2c(Cl)cccc2Cl)c(=N)c2cnc(Nc3ccc4c(c3)CCN(CCO)C4(C)C)nc21 , IC50: 5.2

For CN1CCc2ccc(Nc3ncc4c(=N)n(-c5c(F)cccc5Cl)c(=O)[nH]c4n3)cc2C1 the compound record lists IC50 as 6.8

Data point: CN(C)C1Cc2ccc(Nc3ncc4c(=N)n(-c5c(Cl)cccc5Cl)c(=O)[nH]c4n3)cc2C1 (stereo not shown) ; IC50 = 6.5

Record summary for CN1CCc2cc(Nc3ncc4c(=N)n(-c5c(Cl)cccc5Cl)c(=O)[nH]c4n3)ccc2C1(C)C : reported IC50 = 8.3
